target system: rat angiotensin 2 type 1 receptor (rat) (UniProt P25095)
Sequence (P25095 whole entry): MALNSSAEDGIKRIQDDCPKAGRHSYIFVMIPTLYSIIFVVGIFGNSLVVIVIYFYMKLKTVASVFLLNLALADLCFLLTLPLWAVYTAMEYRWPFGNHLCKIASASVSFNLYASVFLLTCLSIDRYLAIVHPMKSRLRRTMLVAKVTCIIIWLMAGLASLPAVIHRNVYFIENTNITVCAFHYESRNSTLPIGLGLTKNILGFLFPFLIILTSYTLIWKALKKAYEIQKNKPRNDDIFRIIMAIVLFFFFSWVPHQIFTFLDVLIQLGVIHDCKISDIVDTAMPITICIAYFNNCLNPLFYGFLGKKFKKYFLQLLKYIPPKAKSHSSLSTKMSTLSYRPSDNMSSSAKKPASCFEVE
test: cell-based or functional assay
Where no end group is shown, it is not given here.
readout: IP One Max (%)
Give the value in % but do not write % after it.

Query block: Which value of IP One Max has been reported for DRVYYHP-NH2 [SEQ ID NO: 57 (Asp-Arg-Val-Tyr-Tyr-His-Pro-NH2)] in the records?
Result block: 35.3

Query block: Item under review: RVYHHPA (N-terminal Sar; C-terminal acid) [SEQ ID NO: 22 (Sar-Arg-Val-Tyr-His-His-Pro-Ala-OH)] . Reported IP One Max?
Result block: 5.2

Query block: Return reported IP One Max; argument: RVYEHPI (N-terminal Sar; C-terminal acid) [SEQ ID NO: 16 (Sar-Arg-Val-Tyr-Glu-His-Pro-Ile-OH)]
Result block: 24.4

Query block: Find the recorded IP One Max belonging to RVYKHPA (N-terminal Sar; C-terminal acid) [SEQ ID NO: 23 (Sar-Arg-Val-Tyr-Lys-His-Pro-Ala-OH)] and report it.
Result block: 10.3

Query block: IP One Max for DRVYYHP (D-residue; C-terminal amide) [SEQ ID NO: 58 (D-Asp-Arg-Val-Tyr-Tyr-His-Pro-NH2)] ?
Result block: 9.94

Query block: Which IP One Max is reported for this binder? RVYYHP (N-terminal Sar; C-terminal D-Phe) [SEQ ID NO: 28 (Sar-Arg-Val-Tyr-Tyr-His-Pro-D-Phe-OH)]
Result block: 24.6

Query block: Return reported IP One Max; argument: VYIHPF (cyclic) [SEQ ID NO: 38 (Cyclo(Val-Tyr-Ile-His-Pro-Phe))]
Result block: 20.8

Query block: Look up IP One Max for this binder: RVYVHPI (N-terminal Sar; C-terminal amide) [SEQ ID NO: 12 (Sar-Arg-Val-Tyr-Val-His-Pro-Ile-NH2)]
Result block: 44.9
